- target_system: tissue factor (TF) on the surface of TF-positive tumor cells (human, UniProt P13726 33-295)
- assay_remarks: cell-based or functional assay
quantity_name: Endocytosis rate (%) on NCI-H358 cells, 4 h
Answers are plain numbers, in %.

Reference set (3 entries):
{"columns": ["binder", "quantitative_result"],
 "data": [
  ["2B12B10-hz1 (antibody, human IgG1, kappa, V domains shown, Humanized IgG1 kappa) VH: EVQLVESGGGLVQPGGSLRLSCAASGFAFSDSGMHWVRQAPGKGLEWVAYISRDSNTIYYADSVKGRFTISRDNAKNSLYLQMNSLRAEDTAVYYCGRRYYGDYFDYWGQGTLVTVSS VL: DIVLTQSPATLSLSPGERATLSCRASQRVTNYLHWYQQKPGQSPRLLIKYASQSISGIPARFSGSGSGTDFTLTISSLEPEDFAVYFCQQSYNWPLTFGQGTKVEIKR", 49.6],
  ["27H8H3-hz1 (antibody, human IgG1, kappa, V domains shown, Humanized IgG1 kappa) VH: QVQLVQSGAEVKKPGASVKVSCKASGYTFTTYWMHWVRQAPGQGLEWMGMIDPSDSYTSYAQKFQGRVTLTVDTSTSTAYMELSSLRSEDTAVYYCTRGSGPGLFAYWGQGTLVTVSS VL: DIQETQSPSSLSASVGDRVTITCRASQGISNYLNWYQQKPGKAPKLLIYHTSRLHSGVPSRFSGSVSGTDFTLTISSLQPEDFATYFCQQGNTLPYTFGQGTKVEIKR", 73.4],
  ["30G11B7-hz1 (antibody, human IgG1, kappa, V domains shown, Humanized IgG1 kappa) VH: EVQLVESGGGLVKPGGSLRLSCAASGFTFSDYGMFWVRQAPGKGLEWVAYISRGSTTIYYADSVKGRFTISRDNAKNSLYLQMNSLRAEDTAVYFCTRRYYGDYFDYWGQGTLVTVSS VL: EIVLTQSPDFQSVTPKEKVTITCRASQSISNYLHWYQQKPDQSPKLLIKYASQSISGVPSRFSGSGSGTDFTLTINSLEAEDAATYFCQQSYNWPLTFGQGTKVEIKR", 46.1]
]}

Turning to the following binder.
Using the record for 22F11H5-hz1 (antibody, human IgG1, kappa, V domains shown, Humanized IgG1 kappa) VH: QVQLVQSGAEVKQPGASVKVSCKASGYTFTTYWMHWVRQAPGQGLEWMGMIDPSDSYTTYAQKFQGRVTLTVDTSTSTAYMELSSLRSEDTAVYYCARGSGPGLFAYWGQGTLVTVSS VL: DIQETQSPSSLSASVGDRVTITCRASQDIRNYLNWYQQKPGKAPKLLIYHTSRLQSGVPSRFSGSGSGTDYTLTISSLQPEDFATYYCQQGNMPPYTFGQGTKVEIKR , report its Endocytosis rate (%) on NCI-H358 cells, 4 h.
56.1

FYI, the data here is from patent US20250333541A1.
